# protocol-summary: NCI Yeast Anticancer Drug Screen. Data for the sgs1 mgt1 strain (AID 161);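 further: 0% = growth of cultures given vehicle only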
# assay-context: S. cerevisiae sgs1 mgt1 strain, at 50.0 µM, active compounds read high
# Experimental: Growth inhibition of yeast strains with defined genetic alterations is measured as a screen for potential anti-cancer activity. Selected strains with alterations in DNA damage repair or cell cycle control were exposed to compounds and growth inhibition was measured relative to vehicle treated controls. The strain used in this assay is sgs1 mgt1
Compounds without any hit were thinned out: in the full panel of roughly 79,000, 15% have a hit.
test-readout: growth inhibition (%)
Express your answer in %, writing the number without its unit.

The examples below pair each entry with its known result.
smiles-notation: CN(C)c1ccc(/C=c2\[nH]c(=O)/c(=C\c3ccc(N(C)C)cc3)[nH]c2=O)cc1
growth inhibition, %: 12.2
//
smiles-notation: CCc1ccc(C(C)=O)cc1
growth inhibition, %: 34.8
//
smiles-notation: C/C=C(\Cl)C=O
growth inhibition, %: -22.9

Measured growth inhibition of Cc1cccc(C(C)C)c1NC(=O)C(=O)CC(=O)c1sc(Nc2ccccc2Cl)nc1C : -0.45

Measured growth inhibition of C=C1CCCCCCCCCCC12SCCCS2 : -25.7

Measured growth inhibition of O=C1OC(c2ccc3c(c2)CCCC3)=C/C1=C/c1ccc2c(c1)OCO2 : 14.1
